test_system: Ectonucleotide pyrophosphatase/phosphodiesterase family member 3 (Homo sapiens) (UniProt O14638)
method_description: Inhibition of human NPP3 expressed in African green monkey COS7 cell membranes pre-incubated for 10 mins before pNP-TMP substrate addition and further incubated for 15 mins by colorimetric method relative to untreated control
Design: concentration or dose not given beside the values
# Lookup of reported inhibition keyed by entry
Entry rule: numbers only, all in %.

chem_smiles: O=C(Nc1ccc(OS(=O)(=O)c2cccc3cccnc23)cc1)c1ccc2ccccc2c1
units_symbol: %
inhibition: 42

chem_smiles: O=C(Nc1ccc(OS(=O)(=O)c2ccc(F)cc2)cc1)c1ccc(Cl)cc1
units_symbol: %
inhibition: 46

chem_smiles: Cc1ccc(S(=O)(=O)Oc2ccc(NC(=O)C3CCCCCCC3)cc2)cc1
units_symbol: %
inhibition: 35

Can you look up the measured inhibition of CC(C)c1cc(C(C)C)c(S(=O)(=O)Oc2ccc(NC(=O)C3CCCCCC3)cc2)c(C(C)C)c1 for me?
37

Query CC(C)c1cc(C(C)C)c(S(=O)(=O)Oc2ccc(NC(=O)C3CCCCCCC3)cc2)c(C(C)C)c1 next
30

* * *

test_system: Ectonucleotide pyrophosphatase/phosphodiesterase family member 1 (Homo sapiens)
Sequence (P22413 whole entry): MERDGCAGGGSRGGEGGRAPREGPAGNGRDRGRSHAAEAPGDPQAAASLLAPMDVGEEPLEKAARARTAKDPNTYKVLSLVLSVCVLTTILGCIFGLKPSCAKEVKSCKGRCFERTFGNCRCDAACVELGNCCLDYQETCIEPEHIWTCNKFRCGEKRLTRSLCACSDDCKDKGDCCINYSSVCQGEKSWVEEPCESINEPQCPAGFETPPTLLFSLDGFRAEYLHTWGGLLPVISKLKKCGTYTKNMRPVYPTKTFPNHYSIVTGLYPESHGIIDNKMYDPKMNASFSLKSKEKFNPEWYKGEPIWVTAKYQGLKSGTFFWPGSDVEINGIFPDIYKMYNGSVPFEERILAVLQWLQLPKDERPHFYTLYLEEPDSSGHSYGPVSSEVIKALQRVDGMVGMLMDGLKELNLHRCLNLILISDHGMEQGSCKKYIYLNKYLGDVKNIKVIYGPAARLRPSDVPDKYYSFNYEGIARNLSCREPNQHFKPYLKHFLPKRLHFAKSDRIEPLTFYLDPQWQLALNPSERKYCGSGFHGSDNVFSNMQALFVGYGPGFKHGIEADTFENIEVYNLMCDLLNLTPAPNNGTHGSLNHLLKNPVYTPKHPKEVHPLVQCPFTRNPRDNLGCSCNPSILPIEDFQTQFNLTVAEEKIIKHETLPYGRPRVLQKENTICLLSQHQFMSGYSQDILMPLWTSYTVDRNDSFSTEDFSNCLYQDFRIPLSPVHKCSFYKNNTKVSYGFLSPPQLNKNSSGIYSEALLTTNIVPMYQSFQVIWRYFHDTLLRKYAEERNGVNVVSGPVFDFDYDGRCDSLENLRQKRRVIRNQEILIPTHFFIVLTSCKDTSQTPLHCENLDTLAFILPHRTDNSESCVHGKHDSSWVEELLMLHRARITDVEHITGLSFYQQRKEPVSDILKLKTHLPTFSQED
This section presents compounds with their documented pIC50 values.
Scale: negative log10 of molar concentration, which is what pIC50 denotes.

Illustrative cases are given below, each with its answer.
chem_smiles: CC(C)(C)c1ccc(S(=O)(=O)Oc2ccc(NC(=O)c3ccc(Cl)cc3)cc2)cc1
pIC50: 5.74
--
chem_smiles: O=C(Nc1ccc(OS(=O)(=O)c2ccc(C(F)(F)F)cc2)cc1)c1ccc(Cl)cc1
pIC50: 4.67
--
chem_smiles: CC(C)(C)c1ccc(S(=O)(=O)Oc2ccc(NC(=O)c3ccc4ccccc4c3)cc2)cc1
pIC50: 5.66
--
chem_smiles: Cc1ccc(S(=O)(=O)Oc2ccc(NC(=O)C3CCCC3)cc2)cc1
pIC50: 5.09

Then there is this compound:
Any idea what its pIC50 is? The compound is O=C(Nc1ccc(OS(=O)(=O)c2ccc(C(F)(F)F)cc2)cc1)c1ccc2ccccc2c1
5.95

* * *

test_system: Ectonucleotide pyrophosphatase/phosphodiesterase family member 3 (Homo sapiens)
Sequence (whole entry): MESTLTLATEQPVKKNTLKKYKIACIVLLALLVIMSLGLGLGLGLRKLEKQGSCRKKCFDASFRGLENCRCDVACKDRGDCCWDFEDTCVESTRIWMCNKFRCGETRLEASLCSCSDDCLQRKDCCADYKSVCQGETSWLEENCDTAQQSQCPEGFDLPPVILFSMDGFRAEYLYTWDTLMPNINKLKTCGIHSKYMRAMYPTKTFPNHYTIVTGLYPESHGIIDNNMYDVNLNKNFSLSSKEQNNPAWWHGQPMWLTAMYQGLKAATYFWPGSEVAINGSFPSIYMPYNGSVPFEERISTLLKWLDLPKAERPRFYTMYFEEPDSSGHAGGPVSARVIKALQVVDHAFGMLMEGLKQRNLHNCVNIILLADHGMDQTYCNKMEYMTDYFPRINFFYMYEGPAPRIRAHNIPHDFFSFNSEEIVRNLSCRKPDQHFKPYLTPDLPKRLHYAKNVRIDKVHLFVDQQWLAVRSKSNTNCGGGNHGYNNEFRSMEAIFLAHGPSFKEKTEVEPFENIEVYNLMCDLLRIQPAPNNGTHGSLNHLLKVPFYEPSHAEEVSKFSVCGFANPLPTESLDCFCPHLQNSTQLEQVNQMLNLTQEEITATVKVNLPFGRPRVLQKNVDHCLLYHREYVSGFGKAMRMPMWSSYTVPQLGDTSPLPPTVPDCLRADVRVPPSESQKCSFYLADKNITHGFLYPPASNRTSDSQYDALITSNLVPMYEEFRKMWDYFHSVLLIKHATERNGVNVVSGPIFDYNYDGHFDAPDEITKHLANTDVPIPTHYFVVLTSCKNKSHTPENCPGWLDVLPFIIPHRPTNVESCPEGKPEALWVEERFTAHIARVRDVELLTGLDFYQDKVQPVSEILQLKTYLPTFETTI
method_description: Inhibition of human NPP3 expressed in African green monkey COS7 cell membranes pre-incubated for 10 mins before pNP-TMP substrate addition and further incubated for 15 mins by colorimetric method relative to untreated control
Parameters: concentration or dose not given beside the values
# inhibition listing for each entry below
I'd appreciate it if you included the unit after the number.

These recorded examples may help you get a feel for the data.
chem_smiles: O=C(Nc1ccc(OS(=O)(=O)c2ccccc2)cc1)C1CCCCCCC1
reported_measurement: 47%

chem_smiles: Cc1ccc(S(=O)(=O)Oc2ccc(NC(=O)C3CCCCC3)cc2)cc1
reported_measurement: 39%

chem_smiles: CC(C)(C)c1ccc(S(=O)(=O)Oc2ccc(NC(=O)C3CCCCCCC3)cc2)cc1
reported_measurement: 46%

chem_smiles: CC(C)(C)c1ccc(S(=O)(=O)Oc2ccc(NC(=O)c3ccc4ccccc4c3)cc2)cc1
reported_measurement: 49%

Please examine the following record next.
Any idea what its inhibition is? The molecule is Cc1ccc(S(=O)(=O)Oc2ccc(NC(=O)c3ccc4ccccc4c3)cc2)cc1
23%

* * *

The entries below are paired with their reported log10(IC50).
test_system: Ectonucleotide pyrophosphatase/phosphodiesterase family member 3 (Homo sapiens)
Sequence (O14638 whole entry): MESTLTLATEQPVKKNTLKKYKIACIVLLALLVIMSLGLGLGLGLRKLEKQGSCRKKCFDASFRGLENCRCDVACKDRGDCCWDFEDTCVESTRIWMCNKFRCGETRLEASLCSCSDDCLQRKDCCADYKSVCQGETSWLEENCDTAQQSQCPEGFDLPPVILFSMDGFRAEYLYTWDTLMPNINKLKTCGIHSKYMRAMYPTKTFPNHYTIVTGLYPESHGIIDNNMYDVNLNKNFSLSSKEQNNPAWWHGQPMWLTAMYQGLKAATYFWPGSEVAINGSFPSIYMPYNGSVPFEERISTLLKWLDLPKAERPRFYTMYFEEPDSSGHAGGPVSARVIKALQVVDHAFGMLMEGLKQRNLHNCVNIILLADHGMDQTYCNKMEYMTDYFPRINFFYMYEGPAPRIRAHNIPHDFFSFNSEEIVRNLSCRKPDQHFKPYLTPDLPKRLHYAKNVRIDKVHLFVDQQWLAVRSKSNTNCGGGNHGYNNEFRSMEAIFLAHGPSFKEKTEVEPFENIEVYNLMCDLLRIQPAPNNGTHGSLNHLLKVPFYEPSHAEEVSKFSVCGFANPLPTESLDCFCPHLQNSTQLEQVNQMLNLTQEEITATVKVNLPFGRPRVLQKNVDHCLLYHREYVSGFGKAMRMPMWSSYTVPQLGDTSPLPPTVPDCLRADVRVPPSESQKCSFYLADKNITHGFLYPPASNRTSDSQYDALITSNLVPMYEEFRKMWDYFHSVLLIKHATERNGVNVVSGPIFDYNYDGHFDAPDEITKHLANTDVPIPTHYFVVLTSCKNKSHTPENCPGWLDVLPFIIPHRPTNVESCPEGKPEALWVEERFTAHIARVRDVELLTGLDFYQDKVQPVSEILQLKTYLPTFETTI
Transform log10 | Measure IC50 | Unit µM

Would you please look over these solved cases?
chem_smiles: O=C(Nc1ccc(OS(=O)(=O)c2ccc(F)cc2)cc1)C1CCCC1
log10(IC50): 0.00
//
chem_smiles: O=C(Nc1ccc(OS(=O)(=O)c2ccc(C(F)(F)F)cc2)cc1)c1ccc2ccccc2c1
log10(IC50): 0.73

Recall the recorded log10(IC50) for O=C(Nc1ccc(OS(=O)(=O)c2ccccc2)cc1)C1CCCCCC1 with Ectonucleotide pyrophosphatase/phosphodiesterase family member 3 (Homo sapiens) and state it.
0.82

What do you have for O=C(Nc1ccc(OS(=O)(=O)c2ccc(C(F)(F)F)cc2)cc1)C1CCCCC1 ?
0.25
